Entry source: paper PMC5540273

Reported values of %Inh for individual entries
Tested on: PAK1;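 also: KINOMEscan kinase panel screen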
applied conditions: concentration: 1 μM, replicates: in singlicate; n = 1
Just the number in %, nothing appended.

{"molecule": "COc1ccc(Nc2nccc(NCCNC(=O)Nc3cc(C)ccc3C)n2)cc1 [GSK1379899]", "target under test": "PAK1", "unit tag": "%", "%Inh": 0}
{"molecule": "CC(=O)c1c(C)c2cnc(Nc3ccc(N4CCNCC4)cn3)nc2n(C2CCCC2)c1=O", "target under test": "PAK1", "unit tag": "%", "%Inh": 0}

Qu. Entry Cc1ccc(NC(=O)Nc2ccccc2F)cc1-c1ccc(C(=O)Nc2ccncc2)cc1 [GSK1398477] : reported %Inh = ?
Ans. 0

Qu. Reported %Inh for COc1ccc(Nc2nccc(N3CCC(NC(=O)C(C)c4ccc(Cl)cc4)C3)n2)cc1 (stereo not drawn) [GSK1379735] : what is it?
Ans. 16

Qu. Fill blank: measured %Inh of the molecule COc1cccc(C2=C(Nc3cc(Cl)c(O)c(Cl)c3)C(=O)NC2=O)c1 [SB-390767] is ____.
Ans. 2

Qu. Any idea what %Inh was measured for CCn1c(-c2ccccc2)nc2cnccc21 [SB-733416] ?
Ans. 23

Qu. What measured %Inh goes with O=C(Nc1n[nH]c2nc(-c3cccs3)c(Br)cc12)C1CCCC1 [SB-743341] ?
Ans. 0

Qu. So what does the record say about %Inh for CS(=O)(=O)CCNCc1nc(-c2ccc3ncnc(Nc4ccc5c(cnn5Cc5ccccc5)c4)c3c2)cs1.Cl.Cl [GW569716] ?
Ans. 0

Qu. Name the reported %Inh value associated with the molecule CC(=O)c1cccc(NC(=O)NC2CCN(c3ccnc(Nc4ccc(F)cc4)n3)C2)c1 (stereo not drawn) [GSK1379710]
Ans. 8
